Biological target: human Aurora A (Homo sapiens)
Construct: Histidine tag (N); host or cells: Sf9 insect cells (baculovirus)
Experiment: Aurora A kinase assay (DELFIA enzyme inhibition)
Format: biochemical
Settings: read-out: Aurora A IC50
pIC50: −log10 of the molar value.
experimental-endpoint: pIC50

CN1CCN(C(=O)c2ccc(Nc3oc(-c4c(F)cccc4Cl)nc3C(N)=O)cc2)CC1 :: > 5.00
NC(=O)c1nc(-c2c(F)cccc2F)oc1-c1ccc(NCCN2CCCCC2)cc1 :: > 5.00
NC(=O)c1nc(-c2c(F)cccc2F)oc1-c1ccc(NCCN2CCOCC2)cc1 :: > 5.00

Here is the next item to consider.
Query: Request body: readout pIC50, system human Aurora A (Homo sapiens), query NC(=O)c1[nH]c(-c2c(F)cccc2F)nc1-c1ccccn1 . Return the value.
Result: > 4.00

====

Molecular target: human Aurora A (Homo sapiens, UniProt O14965)
Construct: Histidine tag (N); host or cells: Sf9 insect cells (baculovirus)
Sequence (O14965 1-403): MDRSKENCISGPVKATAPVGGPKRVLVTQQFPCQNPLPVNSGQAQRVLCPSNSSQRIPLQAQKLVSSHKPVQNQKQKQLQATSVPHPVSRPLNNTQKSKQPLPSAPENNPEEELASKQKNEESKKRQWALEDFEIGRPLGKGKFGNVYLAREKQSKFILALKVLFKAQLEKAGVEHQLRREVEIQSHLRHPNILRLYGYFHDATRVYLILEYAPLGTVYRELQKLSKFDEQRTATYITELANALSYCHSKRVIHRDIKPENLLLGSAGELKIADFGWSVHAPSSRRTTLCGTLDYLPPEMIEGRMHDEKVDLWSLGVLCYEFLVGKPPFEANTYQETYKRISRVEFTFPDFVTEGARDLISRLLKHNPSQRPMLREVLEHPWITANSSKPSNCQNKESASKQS
Assay: Aurora A kinase assay (DELFIA enzyme inhibition)
Type: biochemical
The following compounds are shown together with reported IC50 values.

NC(=O)c1nc(-c2c(F)cccc2F)oc1Nc1ccc(C(=O)NC2CN3CCC2CC3)cc1 (centres unmarked) :: < 10 µM

Okay, next one:
Query: I am curious: what IC50 value has been reported for CN1C2CCC1CC(NC(=O)c1ccc(Nc3oc(-c4c(F)cccc4F)nc3C(N)=O)cc1)C2 (centres unmarked) ?
Result: < 10 µM

====

Biological target: human FLT3 (Homo sapiens, UniProt P36888)
Construct: a construct expressing the human FLT3 (564-993) with an amino terminal GST tag
Assay: FLT3 kinase assay (DELFIA enzyme inhibition)
IC50 values for the compounds below.

Recorded IC50, per entry:
COc1ccc(-c2oc(Nc3ccccc3F)nc2C(N)=O)cc1 :: < 10 µM
CNC(=O)N1CCN(c2ccc(Nc3oc(-c4c(F)cccc4F)nc3C(N)=O)cc2)CC1 :: < 10 µM
NC(=O)c1nc(-c2c(F)cccc2F)oc1-c1ccc(OCCN2CCC(C(N)=O)CC2)cc1 :: < 10 µM
NC(=O)c1nc(-c2c(F)cccc2F)oc1Nc1ccc(S(=O)(=O)N2CCCCC2)cc1 :: < 100 µM
NCC1CN(C(=O)c2ccc(Nc3oc(-c4c(F)cccc4F)nc3C(N)=O)cc2)CCO1 (stereo not drawn) :: < 10 µM

Query: Find the measured IC50: item NC(=O)c1nc(-c2c(F)cccc2F)oc1Nc1ccc(C2=NNC(=O)C2)cc1 , target or system human FLT3 (Homo sapiens, UniProt P36888).
Result: < 10 µM

Query: Field entry: NC(=O)c1nc(-c2c(F)cccc2F)oc1-c1ccc(N)cc1
Result: < 10 µM

Query: Please give the result for COc1ccc(-c2oc(Nc3cccc(OC)c3)nc2C(N)=O)cc1 too.
Result: < 10 µM

Query: Next compound: NC(=O)c1nc(-c2c(F)cccc2F)oc1-c1cccnc1
Result: < 100 µM

====

Target: human FLT3 (Homo sapiens)
Construct: a construct expressing the human FLT3 (564-993) with an amino terminal GST tag
Sequence (P36888 564-993): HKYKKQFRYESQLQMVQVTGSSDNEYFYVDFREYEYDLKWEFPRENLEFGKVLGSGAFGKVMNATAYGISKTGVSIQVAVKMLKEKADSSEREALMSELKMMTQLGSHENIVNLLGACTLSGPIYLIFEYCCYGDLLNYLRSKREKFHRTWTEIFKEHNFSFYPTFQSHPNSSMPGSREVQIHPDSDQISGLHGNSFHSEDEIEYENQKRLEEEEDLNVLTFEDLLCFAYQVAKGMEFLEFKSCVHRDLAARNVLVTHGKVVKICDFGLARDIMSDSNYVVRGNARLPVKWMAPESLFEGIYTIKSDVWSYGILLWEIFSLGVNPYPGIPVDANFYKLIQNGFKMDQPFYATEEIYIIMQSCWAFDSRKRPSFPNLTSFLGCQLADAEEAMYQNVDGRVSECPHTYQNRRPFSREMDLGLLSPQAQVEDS
Test: FLT3 kinase assay (DELFIA enzyme inhibition)
experimental-endpoint: IC50

Below are worked cases with known answers.
COc1ccc(-c2oc(-c3ccc(C#N)cc3)nc2C(N)=O)cc1 :: < 100 µM
CN(CCOc1ccc(-c2oc(-c3c(F)cccc3F)nc2C(N)=O)cc1)Cc1ccccc1 :: < 10 µM

Query: Value wanted: IC50 (human FLT3 (Homo sapiens)) of entry NC(=O)c1nc(-c2c(F)cccc2F)oc1Nc1ccc(N2CCCNCC2)cc1
Result: < 10 µM

Query: Repeat for the following molecule: CN(C)CCOc1ccc(-c2oc(-c3c(F)cccc3F)nc2C(N)=O)cc1
Result: < 10 µM

Query: How about this molecule: CC(C)(C)OC(=O)N1CCC(NC(=O)c2ccc(Nc3oc(-c4c(F)cccc4F)nc3C(N)=O)cc2)CC1
Result: < 10 µM

Query: // repeat for CN1CCN(CC(O)COc2ccc(-c3oc(-c4c(F)cccc4F)nc3C(N)=O)cc2)CC1 (stereo not shown) and report
Result: < 10 µM

Query: And then NC(=O)c1nc(-c2c(Cl)cccc2Cl)oc1-c1ccc(OCCN2CCCCC2)cc1 , what is it?
Result: < 10 µM

Query: Try the molecule NC(=O)c1nc(-c2c(F)cccc2F)oc1Nc1ccc(-n2cncn2)cc1
Result: < 100 µM

====

Target: human Aurora A (Homo sapiens, UniProt O14965)
Construct: Histidine tag (N); host or cells: Sf9 insect cells (baculovirus)
Experiment: Aurora A kinase assay (DELFIA enzyme inhibition)
Type: biochemical
Conditions: read-out: Aurora A IC50
Procedure: The protein was purified by one-step affinity chromatography using nickel-agarose […] Assay reactions are set up in a 25 uL final volume on a 96 well plate. […] The reaction is allowed to proceed for 30 minutes at room temperature before stopping with 100 μL Stop solution comprising of 100 mM EDTA, 1×BSA blocker in TBS (Perbio) and 0.05% Surfact-Amps20 (Perbio). […]
pIC50: −log10 of the molar value. Structures can show the parent of a compound that is named as a salt.
This section presents compounds with their documented pIC50 values.

// below: answered compounds
NC(=O)c1nc(-c2c(F)cccc2F)oc1Nc1ccc(N2CCOCC2)cc1 [Example Q-1] :: > 5.00
NC(=O)c1nc(-c2c(F)cccc2F)oc1-c1cccc2[nH]ccc12 [Example F-36] :: > 4.00
COc1ccc(-c2oc(-c3ccc(C)cc3)nc2C(N)=O)cc1 [Example N-9] :: > 4.00
NC(=O)c1nc(-c2c(F)cccc2F)oc1Nc1ccc(C2CCNCC2)cc1 [Example Q-46] :: > 5.00
NC(=O)c1nc(-c2c(F)cccc2F)oc1Nc1ccc(-n2cncn2)cc1 [Example Q-30] :: > 5.00
NC(=O)c1nc(Nc2cnn(Cc3ccccc3)c2)oc1-c1ccc(N2CCNCC2)cc1 [Example R-17] :: > 5.00

Query: Find the recorded pIC50 belonging to NC(=O)c1nc(-c2c(F)cccc2Cl)oc1Nc1ccc(N2CCNCC2)cc1 [Example Q-36] and report it.
Result: > 5.00

Query: Again, but for NC(=O)c1nc(-c2c(F)cccc2F)oc1Nc1cccc(N2CCNCC2)c1 [Example Q-12, formate salt]
Result: > 5.00

Query: Then COc1ccc(-c2oc(-c3cccc(C)c3)nc2C(N)=O)cc1 [Example N-10] ?
Result: > 4.00

====

Target: human FLT4 (Homo sapiens, UniProt P35916)
Construct: a construct expressing the human FLT4 (789-1207) with an amino terminal GST tag; host or cells: Sf9 insect cells (baculovirus)
Sequence (P35916 789-1207): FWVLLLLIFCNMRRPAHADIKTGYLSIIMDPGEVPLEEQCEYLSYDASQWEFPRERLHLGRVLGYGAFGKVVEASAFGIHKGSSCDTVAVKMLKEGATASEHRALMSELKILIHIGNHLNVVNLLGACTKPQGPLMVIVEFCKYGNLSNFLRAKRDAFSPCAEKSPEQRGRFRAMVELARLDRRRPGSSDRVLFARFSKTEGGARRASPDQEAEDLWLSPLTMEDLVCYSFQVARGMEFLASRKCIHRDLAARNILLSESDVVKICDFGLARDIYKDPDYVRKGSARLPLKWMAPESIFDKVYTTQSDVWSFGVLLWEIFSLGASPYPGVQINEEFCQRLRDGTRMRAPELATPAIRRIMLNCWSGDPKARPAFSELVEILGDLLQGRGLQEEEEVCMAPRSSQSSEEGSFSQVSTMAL
Experiment: FLT4 kinase assay (DELFIA enzyme inhibition)
Assay type: biochemical
Conditions: read-out: FLT4 IC50
pIC50: −log10 of the molar value.
pIC50 reference

COc1ccc(-c2oc(-c3cccc(C(F)(F)F)c3F)nc2C(N)=O)cc1 :: > 4.00
NC(=O)c1nc(-c2c(F)cccc2F)oc1Nc1ccc(C(=O)N[C@@H]2CCNC2)cc1 :: > 5.00
COc1ccc(-c2oc(-c3ccccc3F)nc2C(N)=O)cc1 :: > 5.00
NC(=O)c1nc(-c2c(F)cccc2F)oc1-c1cccnc1 :: > 5.00
NC(=O)c1nc(-c2c[nH]c3ccccc23)oc1-c1cccs1 :: > 5.00
COc1ccc(-c2nc(-c3ccccc3)[nH]c2C(N)=O)cc1 :: > 4.00

Query: Please give the measured pIC50 for this compound: NC(=O)c1nc(-c2c(F)cccc2F)oc1Nc1ccc(C(=O)N2CCOCC2CO)cc1 (stereo not drawn)
Result: > 5.00

Query: NC(=O)c1nc(-c2ccncc2)oc1-c1ccc(N2CCNCC2)cc1 , same question.
Result: > 5.00

Query: Can you check NC(=O)c1nc(-c2c(F)cccc2F)oc1Nc1ccccc1 next?
Result: > 5.00

Query: Request: CNC(=O)N1CCN(c2ccc(Nc3oc(-c4c(F)cccc4F)nc3C(N)=O)cc2)CC1
Result: > 5.00

Query: Now this one: NC(=O)c1nc(-c2c(F)cccc2F)oc1-c1ccc(OCC2CNCCO2)cc1 (stereo not drawn)
Result: > 5.00

Query: Next up: COc1ccc(-c2nc(-c3cc(OC)cc(OC)c3)[nH]c2C(N)=O)cc1
Result: > 4.00

Query: Same for NC(=O)c1nc(-c2ccccc2F)oc1-c1ccc(OCCN2CCCCC2)cc1
Result: > 5.00

Query: Continue with CN(CCO)CCOc1ccc(-c2oc(-c3c(F)cccc3F)nc2C(N)=O)cc1
Result: > 5.00

Query: Same again, this time with NC(=O)c1nc(-c2c(F)cccc2F)oc1-c1ccc(CNC(=O)c2ccccc2)cc1
Result: > 5.00

Query: Let us now turn to NCC1CCN(c2ccc(Nc3oc(-c4c(F)cccc4F)nc3C(N)=O)cc2)CC1
Result: > 5.00

Query: Then what about the compound NC(=O)c1nc(-c2c(F)cccc2F)oc1Nc1ccc(C(=O)N2CCC[C@H]2CO)cc1 ?
Result: > 5.00

Query: Same again, this time with COc1ccc(-c2nc(-c3c(F)cccc3F)oc2C(N)=O)cc1
Result: > 5.00
